- Measured On: T1, RBFOX1 RRM RbFoxmut (Fox-RRM*) (Homo sapiens, UniProt Q9NWB1 109-208, R118D;E147R;N151S;E152T)
- T1 sequence: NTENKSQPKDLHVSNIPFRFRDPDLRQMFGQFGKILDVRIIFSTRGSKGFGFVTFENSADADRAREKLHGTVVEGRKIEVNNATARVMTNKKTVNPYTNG
- Test Protocol: EMSA; HiTS-Eq, 1 nM pool, 10 min; buffer printed only for the single-RNA assays: 10 mM Tris pH 7.5, 150 mM NaCl, 3.4 mM EDTA, 0.001% NP-40, 30 C
- Details: tags: His6 N-terminal (pET28a); label: 5' 32P
Over roughly 16,000 sequences, “ka relative to ugcaugu” has its median near 0.096; the highest 2% begin near 0.35. The sample as a whole holds a higher share of the highest values than the screen did.
Kindly state binding signal for each of the entries shown.

Exercise: Reported binding signal for GCAUGGC (DNA:RNA) RNA: GGGAGACCGGAAUUCAGAUUGUCCGCAUGGCUUAAAUCCCGUCGUAGCCACCA DNA 1: CAATCTGAATTCCGGTCTCCC DNA 2: TGGTGGCTACGACGGGATT : what is it?
Solution: 0.497 KA relative to UGCAUGU

Exercise: Reported binding signal for GCAUUGG (DNA:RNA) RNA: GGGAGACCGGAAUUCAGAUUGUCCGCAUUGGUUAAAUCCCGUCGUAGCCACCA DNA 1: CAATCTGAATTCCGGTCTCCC DNA 2: TGGTGGCTACGACGGGATT : what is it?
Solution: 0.179 KA relative to UGCAUGU

Exercise: Reported binding signal for CGCAUGG (DNA:RNA) RNA: GGGAGACCGGAAUUCAGAUUGUCCCGCAUGGUUAAAUCCCGUCGUAGCCACCA DNA 1: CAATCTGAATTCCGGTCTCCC DNA 2: TGGTGGCTACGACGGGATT : what is it?
Solution: 0.804 KA relative to UGCAUGU

Exercise: Reported binding signal for GCAUGGG (DNA:RNA) RNA: GGGAGACCGGAAUUCAGAUUGUCCGCAUGGGUUAAAUCCCGUCGUAGCCACCA DNA 1: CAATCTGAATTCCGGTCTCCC DNA 2: TGGTGGCTACGACGGGATT : what is it?
Solution: 0.322 KA relative to UGCAUGU

Data provenance: paper PMC9911399
